Target Entity: mGluR5 receptor (Sus scrofa)
Construct: 450 μg of protein from brain homogenate with 5 nM ^3[H]-MPEP; from tissue; host or cells: pig brain halves without medulla, cerebellum and pons
Sequence (I3LUI7 19-1212): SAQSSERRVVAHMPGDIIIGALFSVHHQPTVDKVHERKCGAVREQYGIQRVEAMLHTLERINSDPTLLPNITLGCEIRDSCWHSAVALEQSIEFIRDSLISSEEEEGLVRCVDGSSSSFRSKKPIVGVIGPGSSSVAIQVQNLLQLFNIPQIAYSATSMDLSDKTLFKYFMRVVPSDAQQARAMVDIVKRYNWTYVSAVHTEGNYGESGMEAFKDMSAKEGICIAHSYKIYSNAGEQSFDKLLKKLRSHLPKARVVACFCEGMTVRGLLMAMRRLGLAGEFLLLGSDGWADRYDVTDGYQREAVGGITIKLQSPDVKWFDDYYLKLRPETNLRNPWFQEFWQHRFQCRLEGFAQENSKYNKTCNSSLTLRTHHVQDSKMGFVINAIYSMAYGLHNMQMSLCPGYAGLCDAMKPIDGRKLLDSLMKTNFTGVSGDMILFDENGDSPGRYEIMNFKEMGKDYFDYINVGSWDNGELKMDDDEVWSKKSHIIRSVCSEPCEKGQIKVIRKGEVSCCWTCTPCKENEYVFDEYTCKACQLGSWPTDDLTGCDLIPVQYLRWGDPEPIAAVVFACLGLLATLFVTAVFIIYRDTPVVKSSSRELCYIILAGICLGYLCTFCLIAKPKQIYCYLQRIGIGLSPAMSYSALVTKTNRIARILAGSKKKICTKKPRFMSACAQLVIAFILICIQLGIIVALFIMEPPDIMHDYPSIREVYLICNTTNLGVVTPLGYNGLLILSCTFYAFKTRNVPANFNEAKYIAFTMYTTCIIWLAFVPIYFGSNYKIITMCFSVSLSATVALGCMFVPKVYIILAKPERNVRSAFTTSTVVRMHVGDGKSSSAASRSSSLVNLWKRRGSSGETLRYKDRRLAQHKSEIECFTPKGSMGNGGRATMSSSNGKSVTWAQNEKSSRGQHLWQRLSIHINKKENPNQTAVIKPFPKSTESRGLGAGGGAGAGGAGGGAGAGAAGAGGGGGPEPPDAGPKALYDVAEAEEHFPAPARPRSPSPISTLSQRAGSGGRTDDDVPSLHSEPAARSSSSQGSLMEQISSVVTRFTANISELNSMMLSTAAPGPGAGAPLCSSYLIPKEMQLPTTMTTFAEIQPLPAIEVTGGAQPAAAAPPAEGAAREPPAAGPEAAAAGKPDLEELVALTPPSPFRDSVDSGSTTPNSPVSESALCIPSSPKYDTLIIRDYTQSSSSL
Assay Overview: [3H]-MPEP mGluR5 receptor binding assay (pig brain homogenate)
Condition Parameters: 5 nM [3H]-MPEP, read-out: IC50 mGluR5 Receptor (pig) [^3H]-MPEP Bond
pIC50: −log10 of the molar value. Counter-ions that a name gives are not always drawn.
Measured Metric: pIC50

Some molecules with known pIC50 results, for comparison:
>>> print(df.to_string())
                                   molecule  reported
0  COc1ccc(CN(C(=O)c2ccccc2)C2CC2)cc1-c1ccc2ncnc(NC3CC3)c2c1 [Example 267, hydrochloride]      5.18
1  C=CCN(Cc1cccc(-c2ccc3ncnc(NC4CC4)c3c2)c1)C(C)=O [Example 886]      5.70

(1) O=C1C2CCCCC2C(=O)N1Cc1cccc(-c2ccc3ncnc(NC4CC4)c3c2)c1 (centres unmarked) [Example 242, hydrochloride]
(2) CS(=O)(=O)N(Cc1cccc(-c2ccc3ncnc(NC4CC4)c3c2)c1)C1CCCC1 [Example 210]
(3) CC(C)(C)CNc1ncnc2ccc(-c3cccc(CN4C(=O)CCC4=O)c3)cc12 [Example 866]
Query string: Sort ascending by pIC50. Please list the labels according to the requested order.
Result string: 2, 1, 3
(2: 5.22, 1: 5.51, 3: 7.05)

----------
Target Entity: mGluR5 receptor (Sus scrofa)
Construct: 450 μg of protein from brain homogenate with 5 nM ^3[H]-MPEP; from tissue; host or cells: pig brain halves without medulla, cerebellum and pons
Assay Overview: [3H]-MPEP mGluR5 receptor binding assay (pig brain homogenate)
Condition Parameters: 10 μM compound, 5 nM [3H]-MPEP, read-out: % Inhibition of mGluR5 Receptor (pig) [^3H]-MPEP Bond at 10 μM
Structures can show the parent of a compound that is named as a salt.
Measured Metric: inhibition at 10 µM (%)

Solved entries:
In [3]: df
Out[3]:
                                   compound      measured_metric  reported
0  Cc1cccc(CNc2ncnc3ccc(-c4cccc(CN(C(=O)c5ccccn5)C5CC5)c4)cc23)c1  inhibition at 10 µM        44
1  Cc1nc(NC2CC2)c2cc(-c3cccc(CN(C(=O)c4c(F)c(F)c(F)c(F)c4F)C4CC4)c3)ccc2n1  inhibition at 10 µM        85
2  Cc1nc(NC2CC2)c2cc(-c3ccc(F)c(CN(C(=O)C4CCCCC4)C4CC4)c3)ccc2n1  inhibition at 10 µM        46
3  O=C1CCC(=O)N1Cc1ccc(F)c(-c2ccc3ncnc(NC4CC4)c3c2)c1  inhibition at 10 µM        72
4  CC(C)Nc1ncnc2ccc(-c3cccc(CN(Cc4ccccc4)C(=O)CC#N)c3)cc12  inhibition at 10 µM        38

(I) Cc1nc(NC2CC2)c2cc(-c3cccc(CN(C(=O)c4cccc(F)c4)C4CC4)c3)ccc2n1
(II) O=C(c1ccc(Br)s1)N(Cc1cccc(-c2ccc3ncnc(NC4CC4)c3c2)c1)C1CC1
(III) COc1ccc(C(=O)N(Cc2cc(-c3ccc4ncnc(NC5CC5)c4c3)ccc2Cl)C2CC2)cc1OC
Query string: Your job: order these 3 records by inhibition at 10 µM, ascending. Give your ranking as a list of the labels in the requested order.
Result string: I, III, II

(A) CC(C)CN(Cc1cccc(-c2ccc3ncnc(N4CCOCC4)c3c2)c1)C(=O)c1cnccn1
(B) CC(C)(C)Nc1ncnc2ccc(-c3ccc(F)c(CN(C(=O)c4c(F)c(F)c(F)c(F)c4F)C4CC4)c3)cc12
Query string: Please tell me which of the two, A or B , has the higher reported inhibition at 10 µM value. Field: selected label. Fill in the label of the entry you choose.
Result string: B

(a) O=C(C1CCCCC1)N(Cc1cc(-c2ccc3ncnc(NC4CC4)c3c2)ccc1Cl)C1CC1
(b) O=C(c1ccccc1Cl)N(Cc1cccc(-c2ccc3ncnc(N4CCCC4)c3c2)c1)C1CC1
Query string: Param metric = inhibition at 10 µM; output whichever of a , b has the minimum value. Mark your answer with the label of the selected entry.
Result string: a
(a: 37%, b: 71%)

(P) N#CCC(=O)N(Cc1cccc(-c2ccc3ncnc(NC4CC4)c3c2)c1)c1cccnc1
(Q) O=C(c1ccco1)N(Cc1cc(-c2ccc3ncnc(NC4CC4)c3c2)ccc1Cl)C1CC1
(R) NC1(C(=O)NCc2cccc(-c3ccc4ncnc(NC5CC5)c4c3)c2)CC1 [Example 869, dihydrochloride]
Query string: Falling order of inhibition at 10 µM, please. A ranking is expressed here by listing the labels in the requested order.
Result string: Q, R, P

Hey, just so you know, these numbers are from patent US20090069320A1.
